Assay: Cell growth assay (WST-8) (Compounds B1-B278)
Assay type: cell-based
Settings: 96 h; T47D cell line; WST-8, 4 days; read-out: Cell Growth Inhibition in T47D cell line IC50
pIC50: −log10 of the molar value.
Catalogue of molecules with associated pIC50

// solved cases for pIC50 follow
# MOLECULE, pIC50
data = [
    ("C[C@@H]1Cc2c([nH]c3ccccc23)[C@@H](c2cnc(N3CCC4(CC3)CN(CC(=O)N3CCN5c6ccc7c(c6OC[C@H]5C3)CN(C3CCC(=O)NC3=O)C7=O)C4)nc2)N1CC(F)(F)F (stereo partly drawn) [Compound B175]", "8.00 to 9.00"),
    ("C[C@@H]1Cc2c([nH]c3ccccc23)[C@@H](c2cnc(N3CCC4(CCC(CN5CCN6c7ccc8c(c7OC[C@H]6C5)CN(C5CCC(=O)NC5=O)C8=O)CC4)CC3)nc2)N1CC(F)F (stereo partly drawn) [Compound B161]", "< 8.00"),
    ("C[C@@H]1Cc2c([nH]c3ccccc23)[C@@H](c2cnc(N3CCC(CCN4CCN5c6cc7c(cc6OC[C@@H]5C4)C(=O)N(C4CCC(=O)NC4=O)C7)CC3)nc2)N1CC(F)F (stereo partly drawn) [Compound B121]", "8.00 to 9.00"),
    ("C[C@@H]1Cc2c([nH]c3ccccc23)[C@@H](c2cnc(N3CCC4(CC(CN5CCN6c7ccc8c(c7OC[C@H]6C5)CN(C5CCC(=O)NC5=O)C8=O)C4)C3)nc2)N1CC(F)F (stereo partly drawn) [Compound B157]", "8.00 to 9.00"),
    ("C[C@@H]1Cc2c([nH]c3ccccc23)[C@@H](c2c(F)cc(N3CCC4(CC3)CN(C(=O)CN3CCN5c6ccc7c(c6OC[C@H]5C3)CN(C3CCC(=O)NC3=O)C7=O)C4)cc2F)N1CC(F)F (stereo partly drawn) [Compound B174]", "> 9.00"),
]

Now for another entry.
Data request: Field request: pIC50 | item: COc1cc(N2CCC3(CC2)CC(CN2CCN4c5cc6c(cc5OC[C@@H]4C2)C(=O)N(C2CCC(=O)NC2=O)C6)CO3)ccc1[C@@H]1c2[nH]c3ccccc3c2C[C@@H](C)N1CC(F)F (stereo partly drawn) [Compound B142]
Data returned: > 9.00

###

Molecular target: ER (Homo sapiens (Human), UniProt P03372)
Sequence (P03372 whole entry): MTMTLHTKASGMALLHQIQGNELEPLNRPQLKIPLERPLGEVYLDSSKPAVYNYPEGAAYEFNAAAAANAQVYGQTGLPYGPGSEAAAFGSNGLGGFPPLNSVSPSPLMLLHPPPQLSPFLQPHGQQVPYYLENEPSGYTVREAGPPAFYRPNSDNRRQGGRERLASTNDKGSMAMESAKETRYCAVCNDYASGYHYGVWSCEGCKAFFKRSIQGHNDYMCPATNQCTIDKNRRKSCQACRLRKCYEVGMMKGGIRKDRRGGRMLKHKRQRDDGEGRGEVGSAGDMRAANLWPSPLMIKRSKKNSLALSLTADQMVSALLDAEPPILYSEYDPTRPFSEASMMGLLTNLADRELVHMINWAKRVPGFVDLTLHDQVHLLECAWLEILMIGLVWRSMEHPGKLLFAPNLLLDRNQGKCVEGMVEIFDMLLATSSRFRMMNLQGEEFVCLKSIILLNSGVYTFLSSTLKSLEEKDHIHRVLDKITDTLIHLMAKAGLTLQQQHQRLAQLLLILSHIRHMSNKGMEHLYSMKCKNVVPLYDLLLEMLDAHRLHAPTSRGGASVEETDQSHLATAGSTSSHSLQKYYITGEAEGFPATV
Test: Western blot analysis (Compounds B1-B278)
Assay type: cell-based
Details: ER degradation by traditional Western blot; DC50 classes
REPORTED PROPERTY: Traditional Western Degradation Potency

Guide cases for Traditional Western Degradation Potency, answers given:
# MOLECULE, TESTED SYSTEM, Traditional Western Degradation Potency
records = [
    ("C[C@@H]1Cc2c([nH]c3ccccc23)[C@@H](c2c(F)cc(N3CCC4(CCN(CC(=O)N5Cc6cc7c(cc6C5)C(=O)N(C5CCC(=O)NC5=O)C7=O)CC4)C3)cc2F)N1CC(F)F (stereo partly shown)", "ER (Homo sapiens (Human), UniProt P03372)", "A (“A”: <10 nM)"),
    ("C[C@@H]1Cc2c([nH]c3ccccc23)[C@@H](c2c(F)cc(N3CCC4(CC3)CN(C(=O)CN3Cc5cc6c(cc5C3)C(=O)N(C3CCC(=O)NC3=O)C6=O)C4)cc2F)N1CC(F)F (stereo partly shown)", "ER (Homo sapiens (Human), UniProt P03372)", "A (“A”: <10 nM)"),
    ("C[C@@H]1Cc2c([nH]c3ccccc23)[C@@H](c2c(F)cc(N3CC4(CCN(C(=O)CN5Cc6cc7c(cc6C5)C(=O)N(C5CCC(=O)NC5=O)C7)C4)C3)cc2F)N1CC(F)F (stereo partly shown)", "ER (Homo sapiens (Human), UniProt P03372)", "A (“A”: <10 nM)"),
    ("C[C@@H]1Cc2c([nH]c3ccccc23)[C@@H](c2c(F)cc(C3CCC4(CC3)CCN(C(=O)CN3Cc5cc6c(cc5C3)C(=O)N(C3CCC(=O)NC3=O)C6=O)CC4)cc2F)N1CC(F)F (stereo partly shown)", "ER (Homo sapiens (Human), UniProt P03372)", "C (“C”: >100 nM)"),
    ("C[C@@H]1Cc2c([nH]c3ccccc23)[C@@H](c2c(F)cc(-c3ccc(C(=O)N4CCC(N5Cc6cc7c(cc6C5)C(=O)N(C5CCC(=O)NC5=O)C7=O)CC4)nn3)cc2F)N1CC(F)F (stereo partly shown)", "ER (Homo sapiens (Human), UniProt P03372)", "B (“B”: 10-100 nM)"),
    ("C[C@@H]1Cc2c([nH]c3ccccc23)[C@@H](c2cnc(N3CCC(C(=O)N4CCC(N5Cc6cc7c(cc6C5)C(=O)N(C5CCC(=O)NC5=O)C7=O)CC4)CC3)nc2)N1CC(F)(F)F (stereo partly shown)", "ER (Homo sapiens (Human), UniProt P03372)", "A (“A”: <10 nM)"),
]

Data request: What Traditional Western Degradation Potency value was documented for this molecule, C[C@@H]1Cc2c([nH]c3ccccc23)[C@@H](c2c(F)cc(N3CCC(C(=O)N4CCC(N5Cc6cc7c(cc6C5)C(=O)N(C5CCC(=O)NC5=O)C7=O)CC4)CC3)cc2F)N1CC(F)(F)F (stereo partly shown) ?
Data returned: B (“B”: 10-100 nM)

###

Recorded DC50 by entry
Molecular target: ER in T47D cells (Homo sapiens (Human), UniProt P03372)
Sequence (P03372 whole entry): as above
Test: In-cell western (ICW) ER degradation assay in T47D cells (Compounds A1-A70)
Format: cell-based
Conditions: ER degradation, T47D cells, 16 hrs treatment, 0.02 to 300 nM
Counter-ions that a name gives are not always drawn.

# COMPOUND, RESULT
records = [
    ("COc1cc(N2CCC(CN3CCN4c5ccc6c(c5OC[C@@H]4C3)CN([C@H]3CCC(=O)NC3=O)C6=O)CC2)ccc1[C@@H]1c2[nH]c3ccccc3c2C[C@@H](C)N1CC(F)F", "< 1 nM"),
]

Data request: Reported DC50, compound C[C@@H]1Cc2c([nH]c3ccccc23)[C@@H](c2cnc(N3CCO[C@H](CN4CCN5c6cc7c(cc6OC[C@@H]5C4)C(=O)N(C4CCC(=O)NC4=O)C7)C3)nc2)N1CC(C)(C)F (stereo partly drawn) : ____
Data returned: < 1 nM

Data request: Look at this compound and give its reported DC50. C[C@H]1Cc2c([nH]c3ccccc23)[C@H](c2cnc(N3CCC4(CC3)C[C@H](CN3CCC(c5ccc(N[C@H]6CCC(=O)NC6=O)cc5)CC3)CO4)nc2)N1CC(F)F
Data returned: < 1 nM

Data request: So what's the measured DC50 for this one? COc1cc(N2CCC(CN3CCC4(CC3)COc3cc5c(cc34)CN(C3CCC(=O)NC3=O)C5=O)CC2)ccc1[C@@H]1c2[nH]c3ccccc3c2C[C@@H](C)N1CC(F)F (stereo partly drawn)
Data returned: < 1 nM

Data request: What measured DC50 goes with COc1cc(N2CCC(CN3CCN4c5ccc(C(=O)NC6CCC(=O)NC6=O)nc5OC[C@H]4C3)CC2)ccc1[C@H]1c2[nH]c3ccccc3c2C[C@H](C)N1CC(F)F (stereo partly drawn) ?
Data returned: < 1 nM

Data request: Can you share its DC50? I mean this compound: C[C@H]1Cc2c([nH]c3ccccc23)[C@H](c2cnc(N3CCC4(CC3)C[C@@H](CN3CCN5c6cc7c(cc6OC[C@H]5C3)C(=O)N([C@@H]3CCC(=O)NC3=O)C7)CO4)nc2)N1CC(F)F
Data returned: < 1 nM

Data request: Would you kindly share the measured DC50 for COc1cc(N2CCC(CN3CCN(c4ccc(C(=O)N[C@H]5CCC(=O)NC5=O)nc4)CC3)CC2)ccc1[C@@H]1c2[nH]c3ccccc3c2C[C@@H](C)N1CC(F)F [Compound A43, formate] ?
Data returned: < 1 nM

Data request: Which DC50 is listed for C[C@@H]1Cc2c([nH]c3ccccc23)[C@@H](c2cnc(N3CCN(CC4CCN(c5ccc(N6CCC(=O)NC6=O)cc5)CC4)CC3)nc2)N1CC(F)F ?
Data returned: 1 to 10 nM

Data request: Bench note: what DC50 did COc1cc(N2CCC(CN3CCC(c4ccc(C(=O)NC5CCC(=O)NC5=O)nc4)CC3)CC2)ccc1[C@@H]1c2[nH]c3ccccc3c2C[C@@H](C)N1CC(F)F (stereo partly drawn) show?
Data returned: > 100 nM

Data request: Name the recorded DC50 for COc1cc(N2CCC(CN3CCC(c4ccc5c(c4)n(C)c(=O)n5C4CCC(=O)NC4=O)CC3)CC2)ccc1[C@@H]1c2[nH]c3ccccc3c2C[C@@H](C)N1CC(F)F (stereo partly drawn) .
Data returned: < 1 nM

Data request: Using the record for COc1cc(N2CCC(CN3CCN(c4ccc(NC5CCC(=O)NC5=O)c(F)c4)CC3)CC2)ccc1[C@@H]1c2[nH]c3ccccc3c2C[C@@H](C)N1CC(F)F (stereo partly drawn) , report its DC50.
Data returned: 10 to 100 nM

Data request: For the compound COc1cc(N2CCC(CN3CCN4c5cc(F)c(C(=O)N[C@H]6CCC(=O)NC6=O)cc5OC[C@@H]4C3)CC2)ccc1[C@@H]1c2[nH]c3ccccc3c2C[C@@H](C)N1CC(F)F , what DC50 is on record?
Data returned: 1 to 10 nM
